- testSummary: In vitro human skin penetration (Franz diffusion chamber)
- Type: in vitro ADME
- condition: 0.03% in Formulation A, dermis at 48 hrs, dosed compound
measurementLabel: Percentage Dose Applied, Upper ⅓ Dermis, Prodrug (Percentage Dose Applied)

CCNC(=O)CCC/C=C\C[C@@H]1[C@@H](/C=C/[C@H](CCc2ccccc2)OC(=O)CC)[C@H](O)C[C@@H]1O | 1.9

[P] CCNC(=O)CCC/C=C\C[C@@H]1[C@@H](/C=C/[C@@H](O)CCc2ccccc2)[C@H](OC(=O)CC)C[C@@H]1O
[Q] CCNC(=O)CCC/C=C\C[C@@H]1[C@@H](/C=C/[C@@H](O)CCc2ccccc2)[C@H](O)C[C@@H]1O
[R] CCNC(=O)CCC/C=C\C[C@@H]1[C@@H](/C=C/[C@H](CCc2ccccc2)OC(C)=O)[C@H](O)C[C@@H]1O
Ask | Arrange the 3 entries by Percentage Dose Applied, Upper ⅓ Dermis, Prodrug so the values rise. Returns: the labels arranged in the requested order.
Reply | P, R, Q
